# TARGET OF ASSAY: PaMTIP (Pseudomonas aeruginosa, UniProt Q9HZK1)
# Sequence (Q9HZK1 whole entry): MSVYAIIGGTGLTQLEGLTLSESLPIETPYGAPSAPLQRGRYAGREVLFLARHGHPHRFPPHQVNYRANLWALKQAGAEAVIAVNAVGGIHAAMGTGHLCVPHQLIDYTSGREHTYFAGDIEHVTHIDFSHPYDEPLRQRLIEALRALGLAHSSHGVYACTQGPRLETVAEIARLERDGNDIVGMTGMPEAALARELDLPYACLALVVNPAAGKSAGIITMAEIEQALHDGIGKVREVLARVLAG
# TEST DETAILS: PaMTIP inhibition assay
# Format: biochemical
# SETUP CONDITIONS: initial phase; 1 nM PaMTIP, 2 mM MTI, 25 °C, pH 7.4
So I've got a bunch of compounds here, and I need their pKi values.
Please express pKi as -log10 of the molar concentration.

Q: Return reported pKi; argument: CSC[C@H]1N[C@@H](c2c[nH]c3c(=O)[nH]cnc23)[C@H](O)[C@@H]1O [MT-ImmH, 5'-methylthio-ImmH]
Result: 9.08

Q: Same read-out for CSC[C@H]1CN(Cc2c[nH]c3c(=O)[nH]cnc23)C[C@@H]1O [MT-DADMe-ImmH, 5'-methylthio-DADMe-ImmH] ?
Result: 9.10

Q: Same read-out for O=c1[nH]cnc2c([C@@H]3N[C@H](CSc4ccccc4)[C@@H](O)[C@H]3O)c[nH]c12 [PhT-ImmH, 5'-phenylthio-ImmH] ?
Result: 9.18
